The reported numbers originate from patent US9920088B2.

Kindly state Cell viability (%) for each of the entries shown.
Test system: MDCK cells
Experimental Context: dog, 48 h, 50 μM
One number for each entry, in %.

Request: State the measured Cell viability (%) (MDCK cells) of CC1(C)CC[C@]2(C(=O)N[C@H]3OC(CO)[C@@H](O)C(O)C3O)C(=O)C[C@]3(C)C(=CCC4[C@@]5(C)CCC(=O)C(C)(C)C5CC[C@]43C)C2C1 (some centres unmarked)
Result: 98.5

// input: 3 compounds below; output: Cell viability (%) for each
1. CC1(C)CC[C@]2(C(=O)O[C@H]3OC(CO)[C@@H](O)C(O)C3O)C(O)C[C@]3(C)C(=CC[C@@H]4[C@@]5(C)CC[C@H](O)C(C)(C)[C@@H]5CC[C@]43C)[C@@H]2C1 (some centres unmarked)
2. CC(=O)OCC1O[C@H](NC(=O)[C@]23CCC(C)(C)CC2C2=CCC4[C@@]5(C)CCC(=O)C(C)(C)C5CC[C@@]4(C)[C@]2(C)CC3=O)C(OC(C)=O)C(OC(C)=O)[C@@H]1OC(C)=O (some centres unmarked)
3. CC(=O)OCC1O[C@H](NC(=O)[C@]23CCC(C)(C)CC2C2=CCC4[C@@]5(C)CC[C@H](O)C(C)(C)C5CC[C@@]4(C)[C@]2(C)CC3)C(OC(C)=O)C(OC(C)=O)[C@H]1OC(C)=O (some centres unmarked)

Result:
100.3
80.8
82.3

Request: State the measured Cell viability (%) (MDCK cells) of CC1(C)CC[C@@]2(C(=O)N[C@H]3OC(CO)[C@@H](O)C(O)C3O)C(C1)C1=CCC3[C@@]4(C)CC[C@H](O)C(C)(C)C4CC[C@@]3(C)[C@]1(C)C[C@H]2O (some centres unmarked)
Result: 105.0

====

Kindly state pEC50 for each of the entries shown.
System: B/ShenZhen/155/2005
Assay Explanation: CPE reduction assay, B/SZ/155
Assay type: cell-based
Experimental Context: Influenza B virus, B/SZ/155, CPE
Answers are plain numbers, as −log10 of the molar value.

Request: Answer with the recorded pEC50 of NC(=O)c1ncn([C@@H]2O[C@H](CO)[C@@H](O)[C@H]2O)n1 [RBV, ribavirin, reference compound] only.
Result: 5.88

// input: 3 compounds below; output: pEC50 for each
1. CC(=O)OCC1O[C@H](NC(=O)[C@]23CCC(C)(C)CC2C2=CCC4[C@@]5(C)CC[C@H](O)C(C)(C)C5CC[C@@]4(C)[C@]2(C)CC3)C(OC(C)=O)C(OC(C)=O)[C@@H]1OC(C)=O (stereo partly drawn) [Compound Y5]
2. CC1(C)CC[C@]2(C(=O)O[C@H]3OC(CO)[C@@H](O)C(O)C3O)C(O)C[C@]3(C)C(=CC[C@@H]4[C@@]5(C)CC[C@H](O)C(C)(C)[C@@H]5CC[C@]43C)[C@@H]2C1 (stereo partly drawn) [Compound Q9]
3. CCOC(=O)C1=C[C@@H](OC(CC)CC)[C@H](NC(C)=O)[C@@H](N)C1 [OSV-P, oseltamivir phosphate, reference compound]

Result:
[5.55, 4.44, 4.04]

====

Tested on: MDCK cells
Experimental Context: dog, 48 h, 50 μM
Kindly state Cell viability(%) for each of the entries shown.
Give bare numbers, in %.

Guide cases for Cell viability(%), answers given:
Request: Answer with the recorded Cell viability(%) of CC1(C)CC[C@]2(C(=O)O[C@H]3OC(CO)[C@H](O[C@H]4OC(CO)[C@@H](O)C(O)C4O)C(O)C3O)C(O)C[C@]3(C)C(=CC[C@@H]4[C@@]5(C)CC[C@H](O)C(C)(C)[C@@H]5CC[C@]43C)[C@@H]2C1 (stereo partly shown) [Compound Q11] only.
Result: 92.8

Request: Answer with the recorded Cell viability(%) of CC(=O)OCC1O[C@H](O[C@H]2C(COC(C)=O)O[C@H](OC(=O)[C@]34CCC(C)(C)C[C@H]3C3=CC[C@@H]5[C@@]6(C)CC[C@H](O)C(C)(C)[C@@H]6CC[C@@]5(C)[C@]3(C)CC4O)C(OC(C)=O)C2OC(C)=O)C(OC(C)=O)C(OC(C)=O)[C@@H]1OC(C)=O (stereo partly shown) [Compound Q10] only.
Result: 98.1

Request: Answer with the recorded Cell viability(%) of CC(=O)OCC1O[C@@H](O[C@H]2C(COC(C)=O)O[C@H](OC(=O)[C@]34CCC(C)(C)C[C@H]3C3=CC[C@@H]5[C@@]6(C)CC[C@H](O)C(C)(C)[C@@H]6CC[C@@]5(C)[C@]3(C)CC4O)C(OC(C)=O)C2OC(C)=O)C(OC(C)=O)C(OC(C)=O)[C@H]1OC(C)=O (stereo partly shown) [Compound Q12] only.
Result: 93.3

Kindly consider the entry below.
Request: Answer with the recorded Cell viability(%) of CC(=O)OCC1O[C@H](OC(=O)[C@]23CCC(C)(C)C[C@H]2C2=CC[C@@H]4[C@@]5(C)CC[C@H](O)C(C)(C)[C@@H]5CC[C@@]4(C)[C@]2(C)CC3O)C(OC(C)=O)C(OC(C)=O)[C@@H]1OC(C)=O (stereo partly shown) [Compound Q8] only.
Result: 102.6

====

Kindly state Viral Infectivity (%) for each of the entries shown.
System: influenza virus A/WSN/33(H1N1)
Assay Explanation: Cytopathic effect (CPE) inhibition assay, WSN virus in MDCK cells
Format: cell-based
Experimental Context: Table 6; 50 μM, WSN MOI=1, 48 h; lower = better inhibition

Guide cases for Viral Infectivity (%), answers given:
Request: State the measured Viral Infectivity (%) (influenza virus A/WSN/33(H1N1)) of CC(=O)OCC1O[C@H](O[C@H]2C(COC(C)=O)O[C@H](OC(=O)[C@]34CCC(C)(C)C[C@H]3C3=CC[C@@H]5[C@@]6(C)CC[C@H](O)C(C)(C)[C@@H]6CC[C@@]5(C)[C@]3(C)CC4O)C(OC(C)=O)C2OC(C)=O)C(OC(C)=O)C(OC(C)=O)[C@@H]1OC(C)=O (stereo partly shown) [Compound Q10]
Result: 100.6%

Request: State the measured Viral Infectivity (%) (influenza virus A/WSN/33(H1N1)) of CC1(C)CC[C@]2(C(=O)O[C@H]3OC(CO)[C@H](O)C(O)C3O)C(O)C[C@]3(C)C(=CC[C@@H]4[C@@]5(C)CC[C@H](O)C(C)(C)C5CC[C@]43C)[C@@H]2C1 (stereo partly shown) [Compound Q2]
Result: 76.2%

Request: State the measured Viral Infectivity (%) (influenza virus A/WSN/33(H1N1)) of CC1(C)CC[C@]2(C(=O)O[C@H]3OC(CO)[C@@H](O)C(O)C3O)C(O)C[C@]3(C)C(=CC[C@@H]4[C@@]5(C)CC[C@H](O)C(C)(C)[C@@H]5CC[C@]43C)[C@@H]2C1 (stereo partly shown) [Compound Q9]
Result: 21.1%

Kindly consider the entry below.
Request: State the measured Viral Infectivity (%) (influenza virus A/WSN/33(H1N1)) of CC(=O)OC1C(OC(C)=O)[C@@H](OC(C)=O)CO[C@@H]1OC(=O)[C@]12CCC(C)(C)C[C@H]1C1=CC[C@@H]3[C@@]4(C)CC[C@H](O)C(C)(C)[C@@H]4CC[C@@]3(C)[C@]1(C)CC2O (stereo partly shown) [Compound Q3]
Result: 71.1%

====

Tested on: influenza virus A/WSN/33(H1N1)
Assay Explanation: Cytopathic effect (CPE) inhibition assay, WSN virus in MDCK cells
Assay type: cell-based
Experimental Context: MDCK; Table 9; 50 μM; protective rate against cytopathy; read-out: IAV inhibition rate (%)
Measurement Label: inhibition at 50 µM (%)
Give bare numbers, in %.

Guide cases for inhibition at 50 µM, answers given:
Request: Answer with the recorded inhibition at 50 µM of CC(=O)OCC1O[C@H](NC(=O)[C@]23CCC(C)(C)CC2C2=CCC4[C@@]5(C)CCC(=O)C(C)(C)C5CC[C@@]4(C)[C@]2(C)CC3)C(OC(C)=O)C(OC(C)=O)[C@@H]1OC(C)=O (some centres unmarked) [Compound Y9] only.
Result: 32.2

Request: Answer with the recorded inhibition at 50 µM of CC(=O)OCC1O[C@H](NC(=O)[C@]23CC[C@@H](C)[C@H](C)C2C2=CCC4[C@@]5(C)CC[C@H](O)C(C)(C)C5CC[C@@]4(C)[C@]2(C)CC3)C(OC(C)=O)C(OC(C)=O)[C@H]1OC(C)=O (some centres unmarked) [Compound Y15] only.
Result: 39.8

Request: Answer with the recorded inhibition at 50 µM of CC1(C)CC[C@]2(C(=O)N[C@H]3OC(CO)[C@@H](O)C(O)C3O)CC[C@]3(C)C(=CCC4[C@@]5(C)CCC(=O)C(C)(C)C5CC[C@]43C)C2C1 (some centres unmarked) [Compound Y10] only.
Result: 4.84

Request: Answer with the recorded inhibition at 50 µM of C[C@@H]1CC[C@]2(C(=O)N[C@H]3OC(CO)[C@H](O)C(O)C3O)CC[C@]3(C)C(=CCC4[C@@]5(C)CC[C@H](O)C(C)(C)C5CC[C@]43C)C2[C@H]1C (some centres unmarked) [Compound Y16] only.
Result: 48.2

Request: Answer with the recorded inhibition at 50 µM of CC(=O)OCC1O[C@H](NC(=O)[C@]23CC[C@@H](C)[C@H](C)C2C2=CCC4[C@@]5(C)CC[C@H](O)C(C)(C)C5CC[C@@]4(C)[C@]2(C)C[C@H]3O)C(OC(C)=O)C(OC(C)=O)[C@@H]1OC(C)=O (some centres unmarked) [Compound Y13] only.
Result: 76.9

Request: Answer with the recorded inhibition at 50 µM of CC1(C)CC[C@]2(C(=O)O[C@H]3OC(CO)[C@@H](O)C(O)C3O)C(O)C[C@]3(C)C(=CC[C@@H]4[C@@]5(C)CC[C@H](O)C(C)(C)[C@@H]5CC[C@]43C)[C@@H]2C1 (some centres unmarked) [Compound Q9] only.
Result: 53.6

Request: Answer with the recorded inhibition at 50 µM of C[C@@H]1CC[C@]2(C(=O)N[C@H]3OC(CO)[C@@H](O)C(O)C3O)CC[C@]3(C)C(=CCC4[C@@]5(C)CC[C@H](O)C(C)(C)C5CC[C@]43C)C2[C@H]1C (some centres unmarked) [Compound Y14] only.
Result: 62.2

***
Request: Answer with the recorded inhibition at 50 µM of CC(=O)OCC1O[C@H](NC(=O)[C@]23CCC(C)(C)CC2C2=CCC4[C@@]5(C)CC[C@H](O)C(C)(C)C5CC[C@@]4(C)[C@]2(C)C[C@H]3O)C(OC(C)=O)C(OC(C)=O)[C@H]1OC(C)=O (some centres unmarked) [Compound Y11] only.
Result: 26.8
